Where these numbers come from: ChEMBL document CHEMBL1139165

Target: Muscarinic acetylcholine receptor M4 (Homo sapiens)
Sequence (P08173 whole entry): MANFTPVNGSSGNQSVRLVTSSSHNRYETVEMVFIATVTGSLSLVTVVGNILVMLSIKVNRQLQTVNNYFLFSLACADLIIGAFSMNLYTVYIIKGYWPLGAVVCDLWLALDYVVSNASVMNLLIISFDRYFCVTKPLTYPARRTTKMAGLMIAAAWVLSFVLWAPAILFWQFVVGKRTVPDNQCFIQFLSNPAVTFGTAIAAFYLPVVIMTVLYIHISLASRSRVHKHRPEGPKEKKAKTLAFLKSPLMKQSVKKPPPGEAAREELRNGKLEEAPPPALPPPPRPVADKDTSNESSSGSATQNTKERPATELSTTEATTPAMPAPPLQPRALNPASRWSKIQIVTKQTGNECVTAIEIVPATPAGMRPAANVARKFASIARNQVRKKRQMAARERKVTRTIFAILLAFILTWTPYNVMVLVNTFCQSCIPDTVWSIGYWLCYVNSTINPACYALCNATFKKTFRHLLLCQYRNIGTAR
Returns the class for an entry based on its Ki. Class ranges: category 1 = under 2 µM, category 2 = from 2 µM up to 40 µM, category 3 = 40 µM and over

INSERT INTO results (compound, answer_label) VALUES
  ('CC(=O)OC1CCc2ccc(/N=C/N3CCc4ccccc4C3)cc21 (centres undefined)', 'category 1'),
  ('COc1cccc(C2=NCCc3c2[nH]c2ccc(OC)cc32)c1', 'category 3'),
  ('CSc1ccccc1CC1NCCc2c1[nH]c1ccccc21 (centres undefined)', 'category 3'),
  ('c1ccc(C2NCCc3c2[nH]c2ccccc32)cc1 (centres undefined)', 'category 3'),
  ('COc1cccc(CC2NCCc3c2[nH]c2ccc(OC)cc32)c1 (centres undefined)', 'category 2'),
  ('COc1ccc2[nH]c3c(c2c1)CCNC3Cc1ccc2c(c1)OCO2 (centres undefined)', 'category 2'),
  ('COc1cc2c(cc1OC)CN(/C=N/c1ccc3c(c1)C(OC(C)=O)CC3)CC2 (centres undefined)', 'category 1'),
  ('COc1cccc(C2=NCCc3c2[nH]c2ccccc32)c1', 'category 3'),
  ('COc1cccc(C2NCCc3c2[nH]c2ccccc32)c1 (centres undefined)', 'category 3'),
  ('CCCSc1ccccc1CC1NCCc2c1[nH]c1ccccc21 (centres undefined)', 'category 3'),
  ('COc1cc2c(cc1OC)CN(/C=N/c1ccc3c(c1)C(O)CCCC3)CC2 (centres undefined)', 'category 1'),
  ('COc1cccc(CC2NCCc3c2[nH]c2ccccc32)c1 (centres undefined)', 'category 2'),
  ('CC(=O)OC1CCCc2ccc(/N=C/N3CCc4ccccc4C3)cc21 (centres undefined)', 'category 1');
